assaySystem: recombinant GST-ALK5 (residues 198-503) (Homo sapiens)
Construct: assays using recombinant GST-ALK5 (residues 198-503)
Sequence (P36897 198-503): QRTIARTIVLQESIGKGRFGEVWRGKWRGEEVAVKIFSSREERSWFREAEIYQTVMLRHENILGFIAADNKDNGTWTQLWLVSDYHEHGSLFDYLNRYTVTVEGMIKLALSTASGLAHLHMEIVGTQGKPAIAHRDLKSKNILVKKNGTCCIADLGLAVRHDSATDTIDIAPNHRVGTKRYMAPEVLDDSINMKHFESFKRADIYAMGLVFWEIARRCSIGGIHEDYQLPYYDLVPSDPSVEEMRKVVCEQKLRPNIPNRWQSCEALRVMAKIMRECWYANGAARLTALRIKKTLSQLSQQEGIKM
testDescription: Alk5 fluorescence polarization assay
measurementParameters: displacement of rhodamine green-labelled ligand, 10 nM ALK5; read-out: ALK5 receptor modulator activity (IC50)
assayEndpoint: pIC50
Keep it numeric: pIC50 is minus log10 of the concentration in mol/L.

Tested on recombinant GST-ALK5 (residues 198-503) (Homo sapiens), the item Cc1cccc(-c2[nH]nnc2-c2ccnc(-c3ccc(S(C)(=O)=O)cc3)c2)n1 [Example 1] showed pIC50 equal to 7.59

These measurements were taken from patent US20060074244A1.
